System: HepG2
test: cytotoxicity call (relative viability < 0.9)
recorded.conditions: 10 µM
Hit rate of the full screen: of about 39,000 compounds, about 3,300 (8.5%) were called active. For the sample, actives were picked, then their nearest neighbours and some compounds at random.
Choose one outcome from this list and give only that: Y (active), N (inactive)

> print(dat)
                                   molecule  tested.target  classification
1  CCOC(=O)N(C)C[C@H]1OCc2cnnn2CCCC(=O)N([C@@H](C)CO)C[C@H]1C          HepG2               N
2  O=C(N[C@@H](c1ccccc1)c1ccc2ccccc2n1)C1CCN(CCOc2ccc(Cl)cc2)CC1          HepG2               N
3  O=C(C[C@H]1C[C@@H]2c3cc(NC(=O)Cc4ccncc4)ccc3O[C@@H]2[C@H](CO)O1)NCCN1CCCCC1          HepG2               N

# input State the result this test recorded for CC(=O)OC1CC23CC24CCC(OC2OCC(O)C(O)C2O)C(C)(C)C4CCC3C2(C)CC3OC4(CC(C)C3C12C)OC(O)C1(C)OC41 (stereo not drawn) .
# output N

# input Please state the recorded outcome for this molecule: CC(CC(=O)C1OC1(C)C)C1C(=O)CC2(C)C3=CCC4C(C)(C)C(OC5OCC(O)C(O)C5O)CCC45CC35C(O)CC12C (stereo not drawn)
# output Y

# input For this molecule, state the assay outcome: CCCCOc1ccc(C(=O)CCN2CCCCC2)cc1.Cl
# output Y

# input # fetch the recorded call for COCCCN(C[C@]1(O)CC[C@H]2C3=CC=C4C[C@@H](O)CC[C@]4(C)[C@@H]3CC[C@@]21C)C(=O)O[C@H]1C[C@@H](C)CC[C@@H]1C(C)C here
# output N

# input # fetch the recorded call for C[C@@H]1CCCCO[C@@H](CN(C)C(=O)C2CCCCC2)[C@@H](C)CN([C@@H](C)CO)C(=O)c2cc(NC(=O)c3ccccc3)ccc2O1 here
# output N

# input So what was the verdict on C[C@@H]1CN([C@H](C)CO)C(=O)c2cc(C#CC3(O)CCCC3)cnc2O[C@@H]1CN(C)S(C)(=O)=O in this test?
# output N

# input Returns: the outcome recorded for COc1ccc([N+](=O)[O-])cc1CNCCO in this assay.
# output N

# input For C[C@H](CO)N1C[C@H](C)[C@H](CN(C)Cc2ccc(-c3ccccc3)cc2)Oc2c(NS(=O)(=O)c3ccccc3)cccc2C1=O , what call appears in the results of this test?
# output N

# input Check the results log: what was the call for C[C@@H]1CN([C@H](C)CO)C(=O)c2cccc(NS(=O)(=O)c3cccs3)c2O[C@H]1CN(C)S(=O)(=O)c1ccccc1 ?
# output N

# input Could you please tell me the result logged for COc1cc(C(=O)OCCN2CCCN(CCOC(=O)c3cc(OC)c(OC)c(OC)c3)CC2)cc(OC)c1OC in this assay?
# output N

# input Hi, sorry to bother you, what did the test record for COc1ccc(NC(=O)Nc2cccc3c2O[C@H](CN(C)S(=O)(=O)c2cn(C)cn2)[C@H](C)CN([C@@H](C)CO)C3=O)cc1 ?
# output N

# input Which outcome was assigned to C(=N\c1ccccc1)/c1ccccc1 in this test?
# output N

# input Could you please tell me the result logged for C[C@@H]1CN([C@H](C)CO)C(=O)c2cccc(NS(=O)(=O)c3ccc(F)cc3)c2O[C@H]1CN(C)Cc1ccc(-c2ccccc2)cc1 in this assay?
# output Y

# input Please indicate how the test categorized CCOC(=O)c1c(C)cc(OC)cc1O .
# output Y

# input Name the outcome recorded for CCOC(=O)c1c(C)cc(O)cc1O in the assay.
# output N

# input Could you please tell me the result logged for C[C@@H]1CN([C@@H](C)CO)C(=O)c2cccc(NS(=O)(=O)c3ccc(F)cc3)c2O[C@H]1CN(C)Cc1ccc(-c2ccccc2)cc1 in this assay?
# output N

# input Returns: the outcome recorded for COc1cccc(S(=O)(=O)N2C[C@@H](O)COC[C@@H]3O[C@@H](CC(=O)N4CCOCC4)CC[C@H]32)c1 in this assay.
# output N

# input What call does the record list for CC(=O)OCC(=O)NCCCOc1cccc(CN2CCCCC2)c1.Cl ?
# output N

# input Hi, sorry to bother you, what did the test record for C[C@H](CO)N1C[C@H](C)[C@@H](CN(C)C(=O)Nc2cccc3ccccc23)Oc2ccc(NC(=O)Nc3ccccc3)cc2C1=O ?
# output N

# input Which outcome was assigned to O=C(NCCC1=CCCCC1)c1sc2ccccc2c1Cl in this test?
# output N

# input // outcome(item) with item = C[C@H]1CN([C@@H](C)CO)C(=O)c2cccc(NS(=O)(=O)c3ccc(F)cc3)c2O[C@@H]1CN(C)Cc1ccc(-c2ccccc2)cc1
# output N

# input Recorded call for C[C@@H]1CN([C@H](C)CO)C(=O)c2cc(NS(=O)(=O)c3ccc(F)cc3)ccc2O[C@@H]1CN(C)CC1CC1 ?
# output N

# input Record request — test call for C[C@H](CO)N1C[C@H](C)[C@H](CN(C)Cc2ccc(-c3ccccc3)cc2)Oc2c(NS(=O)(=O)c3ccc(F)cc3)cccc2C1=O
# output Y

# input Name the outcome recorded for CCOC(=O)C(C#N)C1=NCCC1 (stereo not drawn) in the assay.
# output N

# input // param item: CC(=O)O.Cc1c(-c2ccc(O)cc2)n(Cc2ccc(OCCN3CCCCCC3)cc2)c2ccc(O)cc12 ; yields the recorded call
# output Y

# input Which outcome was entered for the molecule Cl.O=C(c1ccc(OCCN2CCCCC2)cc1)c1c(-c2ccc(O)cc2)sc2cc(O)ccc12 in this test?
# output Y

# input Record lookup: outcome of this test for CCCN(C)C[C@@H]1OCCCC[C@@H](C)Oc2ccc(NC(=O)C3CCCCC3)cc2C(=O)N([C@@H](C)CO)C[C@@H]1C ?
# output N

# input # fetch the recorded call for C[C@@H]1CCCCO[C@H](CN(C)Cc2ccc(C(=O)O)cc2)[C@@H](C)CN([C@@H](C)CO)C(=O)c2cc(NC(=O)NC3CCCCC3)ccc2O1 here
# output N

# input Any idea what this test logged for CC(=O)OC[C@H]1O[C@@H](n2ccc(=O)[nH]c2=O)[C@H](OC(C)=O)[C@@H]1OC(C)=O ?
# output N

# input What did the test return for COc1cc(OC)c(C(=O)CCCN2CCCC2)c(OC)c1.Cl ?
# output N

* * *

Tested on: HepG2
test: cytotoxicity call (relative viability < 0.9)
recorded.conditions: 10 µM
Screen size: about 39,000 compounds; about 3,300 (8.5%) were called active. Many of the other results were omitted from the sample, so actives are more common in it than they were.
readout: cytotoxicity call

Worked set:
compound	tested.target	cytotoxicity call
C[C@H]1CN([C@@H](C)CO)C(=O)c2cc(NS(=O)(=O)c3ccccc3)ccc2O[C@@H]1CN(C)Cc1ccc(Cl)c(Cl)c1	HepG2	inactive
O=C(C[C@H]1C[C@H]2c3cc(NC(=O)Nc4ccc(C(F)(F)F)cc4)ccc3O[C@H]2[C@@H](CO)O1)NCCc1ccccc1	HepG2	inactive
COc1ccc(NC(=O)N(C)C[C@@H]2Oc3ccc(NC(=O)CCCN(C)C)cc3C(=O)N([C@@H](C)CO)C[C@H]2C)cc1	HepG2	inactive
CO[C@@H](CN(C)C(=O)Nc1ccc(C(F)(F)F)cc1)[C@H](C)CN(Cc1ccccc1Cl)[C@H](C)CO	HepG2	inactive
C[C@@H]1CN([C@@H](C)CO)C(=O)c2cc(NS(=O)(=O)c3ccccc3)ccc2O[C@@H]1CN(C)Cc1ccc(Cl)c(Cl)c1	HepG2	active

Let us examine a further case.
# input Output measured cytotoxicity call for this item: C=CC[C@H](Nc1ccccc1C)c1ccc(Cl)cc1
# output inactive

* * *

Test system: HepG2
test: cytotoxicity call (relative viability < 0.9)
recorded.conditions: 10 µM
About 3,300 (8.5%) of roughly 39,000 compounds were called active. The entries come from a sample that favours actives as a whole.
Give one outcome, nothing more. List: active, inactive

Previously resolved entries follow.
smiles.structure	classification
Cc1ccc(S(=O)(=O)Nc2ccc3c(c2)C(=O)N([C@@H](C)CO)C[C@@H](C)[C@@H](CN(C)C(=O)Nc2ccc4c(c2)OCO4)OCCCC[C@@H](C)O3)cc1	inactive
Cc1noc(C)c1NC(=O)Nc1cccc2c1O[C@@H](CN(C)Cc1ccc(Oc3ccccc3)cc1)[C@H](C)CN([C@@H](C)CO)C2=O	inactive
CCn1c(=S)ccc2ccccc21	inactive
CC(C)Cn1cnc2ccccc21	inactive
C[C@H]1CN([C@@H](C)CO)C(=O)Cc2cc(N(C)C)ccc2O[C@@H]1CN(C)S(=O)(=O)c1ccc(Cl)cc1	inactive

# input // return assay outcome for NCCn1nc([C@H]2CCN(C(=O)c3csc4c3CCCC4)C2)c2nccnc21
# output inactive

# input Assay result, entry C[C@H]1CN([C@@H](C)CO)C(=O)Cc2cc(N(C)C)ccc2O[C@H]1CN(C)S(=O)(=O)c1ccc(Cl)cc1 — outcome?
# output active
